Target: STAT3:STAT3 (Homo sapiens)
Construct: Nuclear extracts containing active STAT1 and STAT3 were preincubated with or without peptidomimetics; endogenous in cells; host or cells: nuclear extracts
Sequence (P40763 2-770 limits assumed, species assumed): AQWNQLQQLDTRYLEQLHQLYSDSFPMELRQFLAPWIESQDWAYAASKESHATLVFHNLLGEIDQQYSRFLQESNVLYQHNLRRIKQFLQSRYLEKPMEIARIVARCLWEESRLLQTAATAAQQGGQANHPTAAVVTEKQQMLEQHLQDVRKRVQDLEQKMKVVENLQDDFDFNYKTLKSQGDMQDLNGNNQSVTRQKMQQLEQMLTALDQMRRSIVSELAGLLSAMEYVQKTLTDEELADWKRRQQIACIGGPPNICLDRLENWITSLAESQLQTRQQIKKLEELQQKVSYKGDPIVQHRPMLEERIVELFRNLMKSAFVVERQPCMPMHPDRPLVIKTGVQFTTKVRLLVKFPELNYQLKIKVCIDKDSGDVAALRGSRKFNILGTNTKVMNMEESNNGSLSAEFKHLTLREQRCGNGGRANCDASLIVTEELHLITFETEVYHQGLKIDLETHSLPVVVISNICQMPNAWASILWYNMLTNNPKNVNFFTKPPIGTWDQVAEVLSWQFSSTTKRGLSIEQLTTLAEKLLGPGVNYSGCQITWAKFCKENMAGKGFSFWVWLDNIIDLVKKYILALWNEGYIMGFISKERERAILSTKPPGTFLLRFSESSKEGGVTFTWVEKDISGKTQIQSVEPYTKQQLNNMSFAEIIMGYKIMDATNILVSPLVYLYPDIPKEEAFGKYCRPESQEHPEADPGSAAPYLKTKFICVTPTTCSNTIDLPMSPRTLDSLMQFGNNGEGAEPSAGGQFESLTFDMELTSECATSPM
Assay: EMSA of STAT3:STAT3 dimer DNA binding, nuclear extracts preincubated with peptidomimetic, radiolabeled hSIE probe
Format: biochemical
Description: Evaluation was carried out through pre-incubation of specific concentrations of peptidomimetics with nuclear extracts containing STAT1 and STAT3 for 30 minutes at room temperature before incubation with radiolabeled hSIE oligonucleotide probes and ESMA analysis. Standard peptide synthetic procedures using HBTU and DIPEA were employed to furnish the library of functionalized inhibitors.
measured-quantity: IC50 (µM)
Give just the numeric value; µM need not be written.

CC(C)CC(NC(=O)C(Cc1ccc(OP(=O)(O)O)cc1)NC(=O)c1ccc(C#N)cc1)C(=O)NC1CCCCC1 (centres unmarked) [ISS836] : 605

Query: Bench note: what IC50 did CC(C)CC(NC(=O)C(Cc1ccc(OP(=O)(O)O)cc1)NC(=O)c1ccc(C#N)cc1)C(=O)NC(C)C (centres unmarked) [ISS834] show?
Result: 760
